Test system: Kochia scoparia (KCHSC)
Assay: E. Herbicidal post-emergence efficacy, KCHSC
Assay type: in vivo
Settings: application rate 320 g/ha
Would you mind telling me the reported Post-emergence efficacy against KCHSC in % of each entry?
Express your answer in %, writing the number without its unit.

Record Cc1cccc(Oc2ncc(Cl)cn2)c1OS(=O)(=O)CC=C(Cl)Cl [Example I-83] . Reported Post-emergence efficacy against KCHSC in %: 80

Record O=S(=O)(CCC(F)(F)F)Oc1c(Cl)cccc1Oc1ncc(Br)cn1 [Example I-32] . Reported Post-emergence efficacy against KCHSC in %: 100

Record COCCS(=O)(=O)Oc1c(F)cccc1Oc1ncc(Cl)cn1 [Example I-52] . Reported Post-emergence efficacy against KCHSC in %: 100

Record O=S(=O)(CCCC(F)(F)F)Oc1c(F)cccc1Oc1ncc(Br)cn1 [Example I-41] . Reported Post-emergence efficacy against KCHSC in %: 100

Record O=S(=O)(CCC(F)(F)F)Oc1c(Br)cccc1Oc1ncc(F)cn1 [Example I-43] . Reported Post-emergence efficacy against KCHSC in %: 100

Record O=S(=O)(CCCC(F)(F)F)Oc1c(Cl)cccc1Oc1ncc(Br)cn1 [Example I-34] . Reported Post-emergence efficacy against KCHSC in %: 100

Record C=CCS(=O)(=O)Oc1ccccc1Oc1ncc(Cl)cn1 [Example I-36] . Reported Post-emergence efficacy against KCHSC in %: 90

Record O=S(=O)(CC=C(Cl)Cl)Oc1c(F)cccc1Oc1ncc(Cl)cn1 [Example I-85] . Reported Post-emergence efficacy against KCHSC in %: 100

Record C=CCCS(=O)(=O)Oc1c(F)cccc1Oc1ncc(Cl)cn1 [Example I-50] . Reported Post-emergence efficacy against KCHSC in %: 100
